# System Under Test: Ephrin type-A receptor 3 (Homo sapiens) (UniProt P29320)
# Sequence (whole entry): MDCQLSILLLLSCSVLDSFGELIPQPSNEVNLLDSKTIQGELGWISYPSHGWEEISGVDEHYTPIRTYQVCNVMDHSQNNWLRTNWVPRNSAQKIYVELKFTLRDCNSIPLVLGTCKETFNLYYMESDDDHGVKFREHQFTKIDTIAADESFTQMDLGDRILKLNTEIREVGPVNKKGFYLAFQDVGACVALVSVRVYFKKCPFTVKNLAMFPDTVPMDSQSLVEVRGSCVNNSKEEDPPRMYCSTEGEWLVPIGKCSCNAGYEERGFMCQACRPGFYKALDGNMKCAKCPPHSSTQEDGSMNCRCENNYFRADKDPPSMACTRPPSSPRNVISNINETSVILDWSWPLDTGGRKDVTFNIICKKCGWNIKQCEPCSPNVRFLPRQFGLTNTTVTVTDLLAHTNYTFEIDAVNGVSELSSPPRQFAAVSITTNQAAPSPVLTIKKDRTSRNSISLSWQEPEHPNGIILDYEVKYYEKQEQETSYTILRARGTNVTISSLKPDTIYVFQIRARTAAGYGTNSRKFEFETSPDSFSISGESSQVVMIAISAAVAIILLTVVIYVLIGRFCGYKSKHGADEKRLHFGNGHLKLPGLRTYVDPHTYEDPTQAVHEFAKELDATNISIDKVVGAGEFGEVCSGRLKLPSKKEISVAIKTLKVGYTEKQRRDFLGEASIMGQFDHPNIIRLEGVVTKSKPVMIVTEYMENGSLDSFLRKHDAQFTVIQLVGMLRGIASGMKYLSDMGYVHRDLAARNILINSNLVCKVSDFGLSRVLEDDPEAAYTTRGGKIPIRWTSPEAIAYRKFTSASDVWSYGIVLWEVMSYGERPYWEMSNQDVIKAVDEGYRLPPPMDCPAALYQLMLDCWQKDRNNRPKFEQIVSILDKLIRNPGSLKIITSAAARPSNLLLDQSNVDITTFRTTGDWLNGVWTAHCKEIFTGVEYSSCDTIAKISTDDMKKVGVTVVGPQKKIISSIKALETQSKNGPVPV
# Run Conditions: at 10 µM
Listed here are molecules together with their documented residual activity.
Property: residual activity

COc1cc(OC)c(/C=C2\C(=O)Nc3ccccc32)c(OC)c1
84%
CC(C)(C)c1cc(C=C(C#N)C#N)cc(Br)c1O
106%
C[S+]([O-])c1ccc(-c2nc(-c3ccc(F)cc3)c(-c3ccncc3)[nH]2)cc1 (centres undefined)
86%
COc1ccc2c(c[n+](C)c3c4cc5c(cc4ccc23)OCO5)c1OC
92%

====

# Lookup of reported residual activity keyed by entry
# System Under Test: Aurora kinase B (Homo sapiens) (UniProt Q96GD4)
# Sequence (Q96GD4 whole entry): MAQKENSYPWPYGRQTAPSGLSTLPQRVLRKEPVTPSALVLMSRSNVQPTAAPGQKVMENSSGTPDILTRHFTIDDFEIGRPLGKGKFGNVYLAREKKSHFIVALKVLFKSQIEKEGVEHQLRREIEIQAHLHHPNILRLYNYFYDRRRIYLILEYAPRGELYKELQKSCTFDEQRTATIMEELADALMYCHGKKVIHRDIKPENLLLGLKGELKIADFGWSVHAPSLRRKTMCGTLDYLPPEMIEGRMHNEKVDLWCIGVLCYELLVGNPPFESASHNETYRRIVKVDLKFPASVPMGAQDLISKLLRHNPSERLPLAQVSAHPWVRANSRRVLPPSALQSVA
# Run Conditions: at 10 µM
Property: residual activity (%)

COc1ccc2c(c[n+](C)c3c4cc5c(cc4ccc23)OCO5)c1OC
60
COC(=O)[C@@]1(O)C[C@H]2O[C@]1(C)n1c3ccccc3c3c4c(c5c6ccccc6n2c5c31)C(=O)NC4
0
O=[N+]([O-])/C=C/c1ccc2c(c1)OCO2
90
CC(C)[C@H](CO)Nc1nc(Nc2cccc(Cl)c2)c2ncn(C(C)C)c2n1
17
COc1cc2ncnc(Nc3ccc(OCc4ccccc4)cc3)c2cc1OC
3

====

# System Under Test: RAC-alpha serine/threonine-protein kinase (Homo sapiens)
# Run Conditions: at 10 µM
Attribute: residual activity
Property: residual activity (%)

O=C1NC(=O)c2c1c1c3ccccc3[nH]c1c1[nH]c3cc(Br)ccc3c21
106
COc1cc2ncnc(Nc3ccc(Oc4ccccc4)cc3)c2cc1OC
107
Oc1c2ccccc2c2c3c(cccc13)N=N2
110
Cc1nc(-c2ccccc2)c(-c2ccncc2)o1
102
COc1ccc2c(c1)c(C1=C(c3c[nH]c4ccccc34)C(=O)NC1=O)cn2CCCN(C)C
120
Oc1ccc(-c2nc(-c3ccc(F)cc3)c(-c3ccncc3)[nH]2)cc1
112
COc1ccc(CNC(=O)Nc2ncc([N+](=O)[O-])s2)cc1
106
O=C1c2ccccc2-[n+]2ccc3c([nH]c4ccccc43)c21
107
Nc1n[nH]c2nnc(-c3c(-c4ccccc4)nn4ccccc34)cc12
99
Nc1ncnc2[nH]nc(Nc3ccc(F)cc3)c12
109
COc1cccc(-c2cc(=O)c3ccccc3o2)c1N
109
N#C/C(=C\c1ccc(O)c(O)c1)C(=O)NCc1ccccc1
120
CC(=O)O/N=C1\C(=C2\C(=O)Nc3cc(Br)ccc32)Nc2ccccc21
109
O=C(Nc1cccc(Nc2cc(Nc3cccc(C(F)(F)F)c3)ncn2)c1)C1CC1
99
O=c1cc(-c2cccc3c2Sc2ccccc2S3)oc(N2CCOCC2)c1
103
COc1cc2ncnc(Nc3ccc(OCc4ccccc4)cc3)c2cc1OC
122
c1ccc(-c2cnc(Nc3ccc(OCCN4CCCC4)cc3)s2)cc1
115
